# protocol.summary: Monitoring of the plasma concentration of the main oligosaccharides of a VLMWH in human volunteers (plasma filtration + anion-exchange HPLC)
# Assay type: in vivo
# assay.conditions: 7 h after administration of VLMWH (2500 Da) 1.4 mg/kg

{"compound": "O=C(O)C1=CC(O)C(OS(=O)(=O)O)C(OC2C(COS(=O)(=O)O)OC(OC3C(C(=O)O)OC(OC4C(COS(=O)(=O)O)OC(O)C(NS(=O)(=O)O)C4O)C(OS(=O)(=O)O)C3O)C(NS(=O)(=O)O)C2O)O1 (centres unmarked)", "plasma concentration, nM": 30}
{"compound": "CC(=O)NC1C(OC2C(C(=O)O)OC(OC3C(COS(=O)(=O)O)OC(OC4C(C(=O)O)OC(OC5C(COS(=O)(=O)O)OC(OC6C(C(=O)O)OC(OC7C(COS(=O)(=O)O)OC(O)C(NS(=O)(=O)O)C7O)C(OS(=O)(=O)O)C6O)C(NS(=O)(=O)O)C5O)C(OS(=O)(=O)O)C4O)C(NS(=O)(=O)O)C3OS(=O)(=O)O)C(O)C2O)OC(COS(=O)(=O)O)C(OC2OC(C(=O)O)=CC(O)C2O)C1O (centres unmarked)", "plasma concentration, nM": 40}
{"compound": "O=C(O)C1=CC(O)C(OS(=O)(=O)O)C(OC2C(COS(=O)(=O)O)OC(O)C(NS(=O)(=O)O)C2O)O1 (centres unmarked)", "plasma concentration, nM": 30}
{"compound": "CC(=O)NC1C(OC2C(C(=O)O)OC(OC3C(COS(=O)(=O)O)OC(OC4C(C(=O)O)OC(OC5C(COS(=O)(=O)O)OC(O)C(NS(=O)(=O)O)C5O)C(OS(=O)(=O)O)C4O)C(NS(=O)(=O)O)C3OS(=O)(=O)O)C(O)C2O)OC(COS(=O)(=O)O)C(OC2OC(C(=O)O)=CC(O)C2O)C1O (centres unmarked)", "plasma concentration, nM": 100}
{"compound": "O=C(O)C1=CC(O)C(OS(=O)(=O)O)C(OC2C(COS(=O)(=O)O)OC(OC3C(C(=O)O)OC(OC4C(COS(=O)(=O)O)OC(OC5C(C(=O)O)OC(OC6C(COS(=O)(=O)O)OC(O)C(NS(=O)(=O)O)C6O)C(OS(=O)(=O)O)C5O)C(NS(=O)(=O)O)C4O)C(OS(=O)(=O)O)C3O)C(NS(=O)(=O)O)C2O)O1 (centres unmarked)", "plasma concentration, nM": 10}

----------
# reported plasma concentration; entries follow
# protocol.summary: Monitoring of the plasma concentration of the main oligosaccharides of a VLMWH in human volunteers (plasma filtration + anion-exchange HPLC)
# Type: in vivo
# assay.conditions: 2 h after administration of VLMWH (2500 Da) 1.4 mg/kg

{"compound": "O=C(O)C1=CC(O)C(OS(=O)(=O)O)C(OC2C(COS(=O)(=O)O)OC(O)C(NS(=O)(=O)O)C2O)O1 (centres unmarked)", "plasma concentration / nM": 160}
{"compound": "O=C(O)C1=CC(O)C(OS(=O)(=O)O)C(OC2C(COS(=O)(=O)O)OC(OC3C(C(=O)O)OC(OC4C(COS(=O)(=O)O)OC(OC5C(C(=O)O)OC(OC6C(COS(=O)(=O)O)OC(O)C(NS(=O)(=O)O)C6O)C(OS(=O)(=O)O)C5O)C(NS(=O)(=O)O)C4O)C(OS(=O)(=O)O)C3O)C(NS(=O)(=O)O)C2O)O1 (centres unmarked)", "plasma concentration / nM": 30}

The values you see were collected from patent US7575930B2.
